Source: patent US12624004B2

# measuredTarget: μ opioid receptor (Homo sapiens, UniProt P35372)
# Construct: expressed in transfected cells; host or cells: CHO cells (membranes)
# Sequence (P35372 whole entry, species assumed): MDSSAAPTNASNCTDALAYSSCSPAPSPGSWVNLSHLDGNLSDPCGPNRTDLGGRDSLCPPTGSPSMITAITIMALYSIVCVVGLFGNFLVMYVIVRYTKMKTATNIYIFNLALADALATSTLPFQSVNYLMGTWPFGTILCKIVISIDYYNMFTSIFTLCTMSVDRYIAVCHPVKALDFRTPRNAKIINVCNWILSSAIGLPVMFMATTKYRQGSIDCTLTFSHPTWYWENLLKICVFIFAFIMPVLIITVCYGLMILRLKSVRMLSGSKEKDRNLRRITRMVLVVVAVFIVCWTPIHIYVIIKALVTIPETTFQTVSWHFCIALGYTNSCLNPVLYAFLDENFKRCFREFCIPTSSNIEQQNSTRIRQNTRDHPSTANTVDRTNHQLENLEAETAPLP
# testSummary: Competition binding assay on membranes of CHO cells expressing μ opioid receptor, [3H]-labeled ligand
# experimentalSetup: Table 5-1; read-out: μOR Ki
attributeMeasured: log10 of Ki (log10 of the value in nM)
// units: nM (pre-log); metric: Ki; scale: log10

# compound, measuredTarget, dataValue
rows = [
    ("COc1cccc(C2(O)CCN(C(=O)C3(c4ccccc4)CC3)CC2CN(C)C)c1.Cl (centres unmarked) [FWBE24, hydrochloride]", "μ opioid receptor (Homo sapiens, UniProt P35372)", 1.83),
]

Per the records, this compound ( COc1cccc(C2(O)CCN(C(=O)Cc3cccc(Br)c3)CC2CN(C)C)c1.Cl (centres unmarked) [FWBE11, hydrochloride] ) has log10 of Ki equal to 1.76

Form: compound = COc1cccc(C2(O)CCN(C(=O)Cc3c[nH]c4ccccc34)CC2CN(C)C)c1 (centres unmarked) ; log10 of Ki = 2.06

log10 of Ki reported for this compound COc1cccc(C2(O)CCN(C(=O)Cc3cc(C(F)(F)F)cc(C(F)(F)F)c3)CC2CN(C)C)c1.Cl (centres unmarked) [FWBE1, hydrochloride] : 1.40
